I'd be grateful if you could share measured pEC50 for these entries.
testedTarget: bovine opsin (Bos taurus)
Construct: ROS membranes were isolated from bovine retinas under dim red light
Sequence (P02699 whole entry): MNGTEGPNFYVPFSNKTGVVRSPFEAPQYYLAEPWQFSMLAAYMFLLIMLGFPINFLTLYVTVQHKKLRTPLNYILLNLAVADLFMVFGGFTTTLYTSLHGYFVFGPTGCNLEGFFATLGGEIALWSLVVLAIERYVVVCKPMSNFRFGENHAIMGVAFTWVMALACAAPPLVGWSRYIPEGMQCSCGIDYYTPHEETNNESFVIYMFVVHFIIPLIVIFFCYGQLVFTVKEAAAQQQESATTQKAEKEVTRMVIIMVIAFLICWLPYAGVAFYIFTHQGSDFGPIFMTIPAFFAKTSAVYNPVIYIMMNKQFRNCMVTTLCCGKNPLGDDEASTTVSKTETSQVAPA
methodNotes: Ligand-binding assay by Trp fluorescence quenching, opsin in ROS disc membranes
cond: 20 °C, mean of three biological repeats ± s.d., read-out: EC50 of Trp fluorescence quenching at 330 nm (ΔF/F0)
Units for pEC50: none; it is -log10 of a concentration expressed in mol/L.

Query block: Given the molecule O=C1OCC(c2ccc(Cl)s2)=C1c1cccs1 [YC-001] , what is its reported pEC50?
Result block: 6.01

Query block: Given the molecule CC1=C(/C=C/C(C)=C\C=C\C(C)=C\C=O)C(C)(C)CCC1 [9-cis-retinal, reference compound] , what is its reported pEC50?
Result block: 5.92

====

testedTarget: mouse P23H opsin (Mus musculus, UniProt P15409, P23H)
Construct: expressed in transfected cells
methodNotes: High-content imaging analysis of P23H opsin immunostaining in NIH3T3-(P23H opsin/GFP) cells
Format: cell-based
cond: ratio of P23H rod opsin fluorescence on plasma membrane to whole cell; read-out: Immunostaining HCS MEM-Total ratio EC50
Rule: EC50 below 1000 nM gives MET, anything at or above gives NOT MET.

Query block: State whether 1000 nM exceeds EC50 recorded for O=C(NCCCOc1cccc2cccnc12)c1cc(-c2ccccc2)on1 [Compound F5875-0200] .
Result block: NOT MET

Query block: State whether 1000 nM exceeds EC50 recorded for O=C(NCC#CCN1CCCC1)c1cc(-c2ccccc2)on1 [Compound F6244-1415] .
Result block: NOT MET

Query block: State whether 1000 nM exceeds EC50 recorded for O=C1OCC(c2ccc(Cl)s2)=C1c1cccs1 [YC-001] .
Result block: NOT MET

Query block: State whether 1000 nM exceeds EC50 recorded for O=C(CCCCCN1C(=O)c2cccc3cccc(c23)C1=O)NO [Scriptaid, reference compound] .
Result block: MET

Query block: State whether 1000 nM exceeds EC50 recorded for O=C(NCCCn1cccc1)c1cc(-c2ccccc2)on1 [Compound F5937-0207] .
Result block: NOT MET

Query block: State whether 1000 nM exceeds EC50 recorded for O=C(C1CC1)N(CCn1cccn1)c1nc2c(Cl)cccc2s1 [Compound F5581-0240] .
Result block: MET

====

testedTarget: mouse P23H-opsin mutant (Mus musculus, UniProt P15409, P23H)
methodNotes: β-Gal fragment complementation assay: rescue of P23H opsin transport from ER to plasma membrane, U2OS(PLC-EA/P23H-PK) cells
Format: cell-based
cond: 24 h preincubation; activity standardized to 5 µM 9-cis-retinal as 100%; Hill fit; read-out: β-Gal fragment complementation assay Activity score (%) EC50
pEC50: −log10 of the molar value.
Kindly return 1.0 if reported pEC50 is no lower than 5; return 0.0 if it is lower.

Query block: Does CC1=C(/C=C/C(C)=C\C=C\C(C)=C\C=O)C(C)(C)CCC1 [9-cis-retinal, reference compound] have a reported pEC50 of at least 5?
Result block: 1.0

Query block: Does `COCCNC(=O)c1sc2c(cnc3ccc(OC)cc32)c1-c1ccccc1` have a reported pEC50 of at least 5?
Result block: 0.0

Query block: Does `O=C(NCCn1ncc2c(NCc3ccco3)ncnc21)c1cc(-c2ccccc2)on1` have a reported pEC50 of at least 5?
Result block: 0.0

Query block: Does `O=C(Cn1c2c(c(=O)n(C3CCCCC3)c1=O)CCC2)Nc1cccc(F)c1` have a reported pEC50 of at least 5?
Result block: 0.0

Query block: Does `O=C(C1CC1)N(CCn1cccn1)c1nc2c(Cl)cccc2s1` have a reported pEC50 of at least 5?
Result block: 1.0

Query block: Does O=C(CCCCCN1C(=O)c2cccc3cccc(c23)C1=O)NO [Scriptaid, reference compound] have a reported pEC50 of at least 5?
Result block: 1.0

====

I'd be grateful if you could share measured EC50 for these entries.
testedTarget: mouse P23H-opsin mutant (Mus musculus, UniProt P15409, P23H)
methodNotes: β-Gal fragment complementation assay: rescue of P23H opsin transport from ER to plasma membrane, U2OS(PLC-EA/P23H-PK) cells
Type: cell-based
cond: 24 h preincubation; activity standardized to 5 µM 9-cis-retinal as 100%; Hill fit; read-out: β-Gal fragment complementation assay Activity score (%) EC50
Write down the numeric answer in µM and omit the unit.

Query block: Given the compound O=C(NCC#CCN1CCCC1)c1cc(-c2ccccc2)on1 [Compound F6244-1415] , what is its reported EC50?
Result block: 8.61

Query block: Given the compound O=C1OCC(c2ccc(Cl)s2)=C1c1cccs1 [YC-001] , what is its reported EC50?
Result block: 8.7

Query block: Given the compound Cc1cc(OCC(=O)Nc2cc(N3CCOCC3)ncn2)cc(C)c1Cl [Compound F6257-1860] , what is its reported EC50?
Result block: 10.7

Source: paper PMC5958115
